All figures here come from paper PMC2628434.

# Kd per entry
Target: T1, LuxR (Vibrio harveyi, UniProt P21308 1-205)
T1 sequence: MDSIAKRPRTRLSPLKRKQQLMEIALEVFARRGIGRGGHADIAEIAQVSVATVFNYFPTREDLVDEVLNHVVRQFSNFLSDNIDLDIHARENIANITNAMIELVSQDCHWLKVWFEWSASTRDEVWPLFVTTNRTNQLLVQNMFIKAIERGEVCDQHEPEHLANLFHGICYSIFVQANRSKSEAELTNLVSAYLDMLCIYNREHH
Test: fluorescence anisotropy

binder	measure_unit	Kd
qrgB A2C A17C (dsDNA) DNA 1: TGTTTATCTTGAGTTCACAATCCATACCGATCA DNA 2: TGATCGGTATGGATTGTGAACTCAAGATAAACA	nM	242
qrgB A6C (dsDNA) DNA 1: TGTTTATATTGCGTTCACAATCAATACCGATCA DNA 2: TGATCGGTATTGATTGTGAACGCAATATAAACA	nM	44
qrr4 A17C (dsDNA) DNA 1: CATTTTTCTGATAAATGTATTCGTAGCAATG DNA 2: CATTGCTACGAATACATTTATCAGAAAAATG	nM	38
qrgB WT (dsDNA) DNA 1: TGTTTATATTGAGTTCACAATCAATACCGATCA DNA 2: TGATCGGTATTGATTGTGAACTCAATATAAACA	nM	27
qrr4 T15C (dsDNA) DNA 1: CATTTTTCTGATAAATGTACTAGTAGCAATG DNA 2: CATTGCTACTAGTACATTTATCAGAAAAATG	nM	27
VP0057/8 (dsDNA) DNA 1: AACATTACTGATAAATTAGATATTTATGGCT DNA 2: AGCCATAAATATCTAATTTATCAGTAATGTT	nM	47
Consensus (dsDNA) DNA 1: ACTGATATTGATAAATTTATCAATAATGACT DNA 2: AGTCATTATTGATAAATTTATCAATATCAGT	nM	24
qrgB A2C (dsDNA) DNA 1: TGTTTATCTTGAGTTCACAATCAATACCGATCA DNA 2: TGATCGGTATTGATTGTGAACTCAAGATAAACA	nM	27
qrr4 A6C A17C (dsDNA) DNA 1: CATTTTTCTGCTAAATGTATTCGTAGCAATG DNA 2: CATTGCTACGAATACATTTAGCAGAAAAATG	nM	112
qrgB A17C (dsDNA) DNA 1: TGTTTATATTGAGTTCACAATCCATACCGATCA DNA 2: TGATCGGTATGGATTGTGAACTCAATATAAACA	nM	43
VPA0649 (dsDNA) DNA 1: ATTCCTTATTTACCAATTTATAAACTATGAA DNA 2: TTCATAGTTTATAAATTGGTAAATAAGGAAT	nM	30
